Data provenance: patent US10562864B2

# target system: PD1-GFP (Homo sapiens, UniProt Q15116)
# Construct: expressed in transfected cells; host or cells: U2OS
# Sequence (Q15116 25-288): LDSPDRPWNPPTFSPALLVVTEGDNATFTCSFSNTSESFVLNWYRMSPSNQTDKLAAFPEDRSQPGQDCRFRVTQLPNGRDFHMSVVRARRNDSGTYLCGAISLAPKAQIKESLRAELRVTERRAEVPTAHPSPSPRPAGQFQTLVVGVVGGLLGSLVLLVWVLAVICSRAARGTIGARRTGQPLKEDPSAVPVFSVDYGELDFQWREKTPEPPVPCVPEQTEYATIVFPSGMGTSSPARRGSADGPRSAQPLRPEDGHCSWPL
# experimental protocol: Internalization assay (PD1-GFP), confocal imaging of PD1-GFP stable U2OS cells
# Assay type: cell-based
# Set-up: key to the marks not given beside the values
# particulars: 6 hr, 37° C.
quantity measured: Internalized PD1-GFP punctate; 6 hr (10 μM)

compound	measured
O=[N+]([O-])c1ccc2[nH]c(-c3cc(Cl)ccc3O)nc2c1	++++
Cc1cc(/C=C/c2ccc3cc(N(C)C)ccc3[n+]2C)c(C)n1-c1ccccc1	++++
O=C(Nc1ccc(C(F)(F)F)cc1)c1cc(Cl)cc2[nH]c(C(F)(F)F)nc12	++++
COc1ccc2cc1Oc1ccc(cc1)C[C@H]1c3cc(c(OC)cc3CCN1C)Oc1c(OC)c(OC)cc3c1[C@H](C2)N(C)CC3	+++
O=C(Nc1ncc([N+](=O)[O-])s1)c1ccccc1O	++

The compound CC[C@@H](C(=O)[C@@H](C)[C@@H](O)[C@H](C)CCc1ccc(C)c(O)c1C(=O)O)[C@H]1O[C@](CC)([C@H]2CC[C@](O)(CC)[C@H](C)O2)C[C@@H]1C showed Internalized PD1-GFP punctate; 6 hr (10 μM) equal to ++++

Consider CC(=O)Oc1ccccc1C(=O)Nc1ncc([N+](=O)[O-])s1 [Compound 12, nitazoxanide] . Its measured Internalized PD1-GFP punctate; 6 hr (10 μM) is ++

What the record says about CC(NCCC(c1ccccc1)c1ccccc1)c1ccccc1 (centres unmarked) : Internalized PD1-GFP punctate; 6 hr (10 μM) is ++
